# system_under_test: EPHB3 (Homo sapiens)
# Sequence (P54753 34-998): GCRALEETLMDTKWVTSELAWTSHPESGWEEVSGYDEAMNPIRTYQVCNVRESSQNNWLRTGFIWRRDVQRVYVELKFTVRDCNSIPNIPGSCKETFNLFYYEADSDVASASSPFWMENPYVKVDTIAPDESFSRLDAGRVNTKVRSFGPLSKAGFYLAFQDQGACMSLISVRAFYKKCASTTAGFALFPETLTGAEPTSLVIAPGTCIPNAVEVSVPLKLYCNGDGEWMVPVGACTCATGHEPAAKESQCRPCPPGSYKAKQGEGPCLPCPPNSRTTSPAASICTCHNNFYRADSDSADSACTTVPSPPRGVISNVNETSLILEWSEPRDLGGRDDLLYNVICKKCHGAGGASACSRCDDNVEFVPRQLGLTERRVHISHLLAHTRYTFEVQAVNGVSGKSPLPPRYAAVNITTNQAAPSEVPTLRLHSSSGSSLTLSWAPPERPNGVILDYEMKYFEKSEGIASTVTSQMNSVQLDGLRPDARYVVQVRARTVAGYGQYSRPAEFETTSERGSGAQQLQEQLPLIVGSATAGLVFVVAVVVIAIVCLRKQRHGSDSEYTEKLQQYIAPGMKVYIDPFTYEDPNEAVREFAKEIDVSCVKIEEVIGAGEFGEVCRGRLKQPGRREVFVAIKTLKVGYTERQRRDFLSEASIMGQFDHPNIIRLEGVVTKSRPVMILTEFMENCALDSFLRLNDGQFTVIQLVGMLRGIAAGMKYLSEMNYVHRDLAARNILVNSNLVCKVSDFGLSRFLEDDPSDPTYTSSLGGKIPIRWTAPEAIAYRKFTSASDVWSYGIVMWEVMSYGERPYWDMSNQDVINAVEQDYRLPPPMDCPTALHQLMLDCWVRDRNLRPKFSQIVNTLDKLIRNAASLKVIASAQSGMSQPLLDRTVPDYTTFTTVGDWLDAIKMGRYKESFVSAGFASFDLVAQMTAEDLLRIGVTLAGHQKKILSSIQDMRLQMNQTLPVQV
reported_endpoint: IC50

Request: Reported IC50 for CC1=C(CC(=O)/C=C/c2cccc(CO)c2)C(=O)C=C2C1=CC=C1[C@@]2(C)CC[C@@]2(C)C3C[C@](C)(C(=O)CCc4nc(C(O)C(O)O)c(C)nc4C)CC[C@]3(C)CC[C@]12C (stereo partly shown) [CP1] : what is it?
Response: > 30 µM

====

# system_under_test: PRDX4 (Homo sapiens, UniProt Q13162)
# Construct: ICE Biosciences (Beijing, China), ran the assays
# Sequence (Q13162 38-271): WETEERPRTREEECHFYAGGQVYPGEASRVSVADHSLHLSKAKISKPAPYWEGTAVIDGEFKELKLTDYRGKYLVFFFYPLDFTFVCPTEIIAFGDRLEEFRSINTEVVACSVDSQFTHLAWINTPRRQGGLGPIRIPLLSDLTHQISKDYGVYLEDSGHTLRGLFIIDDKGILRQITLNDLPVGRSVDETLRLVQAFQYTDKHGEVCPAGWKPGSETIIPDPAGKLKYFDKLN
# assay_notes: Kinase selectivity assay
# Assay type: biochemical
# condition_context: target PRDX4; read-out: CP1 IC50
pIC50: −log10 of the molar value.
reported_endpoint: pIC50

Request: Field request: pIC50 | item: CC1=C(CC(=O)/C=C/c2cccc(CO)c2)C(=O)C=C2C1=CC=C1[C@@]2(C)CC[C@@]2(C)C3C[C@](C)(C(=O)CCc4nc(C(O)C(O)O)c(C)nc4C)CC[C@]3(C)CC[C@]12C (stereo partly shown)
Response: < 4.52

====

# system_under_test: MST1R (Homo sapiens, UniProt Q04912)
# Sequence (Q04912 25-1400): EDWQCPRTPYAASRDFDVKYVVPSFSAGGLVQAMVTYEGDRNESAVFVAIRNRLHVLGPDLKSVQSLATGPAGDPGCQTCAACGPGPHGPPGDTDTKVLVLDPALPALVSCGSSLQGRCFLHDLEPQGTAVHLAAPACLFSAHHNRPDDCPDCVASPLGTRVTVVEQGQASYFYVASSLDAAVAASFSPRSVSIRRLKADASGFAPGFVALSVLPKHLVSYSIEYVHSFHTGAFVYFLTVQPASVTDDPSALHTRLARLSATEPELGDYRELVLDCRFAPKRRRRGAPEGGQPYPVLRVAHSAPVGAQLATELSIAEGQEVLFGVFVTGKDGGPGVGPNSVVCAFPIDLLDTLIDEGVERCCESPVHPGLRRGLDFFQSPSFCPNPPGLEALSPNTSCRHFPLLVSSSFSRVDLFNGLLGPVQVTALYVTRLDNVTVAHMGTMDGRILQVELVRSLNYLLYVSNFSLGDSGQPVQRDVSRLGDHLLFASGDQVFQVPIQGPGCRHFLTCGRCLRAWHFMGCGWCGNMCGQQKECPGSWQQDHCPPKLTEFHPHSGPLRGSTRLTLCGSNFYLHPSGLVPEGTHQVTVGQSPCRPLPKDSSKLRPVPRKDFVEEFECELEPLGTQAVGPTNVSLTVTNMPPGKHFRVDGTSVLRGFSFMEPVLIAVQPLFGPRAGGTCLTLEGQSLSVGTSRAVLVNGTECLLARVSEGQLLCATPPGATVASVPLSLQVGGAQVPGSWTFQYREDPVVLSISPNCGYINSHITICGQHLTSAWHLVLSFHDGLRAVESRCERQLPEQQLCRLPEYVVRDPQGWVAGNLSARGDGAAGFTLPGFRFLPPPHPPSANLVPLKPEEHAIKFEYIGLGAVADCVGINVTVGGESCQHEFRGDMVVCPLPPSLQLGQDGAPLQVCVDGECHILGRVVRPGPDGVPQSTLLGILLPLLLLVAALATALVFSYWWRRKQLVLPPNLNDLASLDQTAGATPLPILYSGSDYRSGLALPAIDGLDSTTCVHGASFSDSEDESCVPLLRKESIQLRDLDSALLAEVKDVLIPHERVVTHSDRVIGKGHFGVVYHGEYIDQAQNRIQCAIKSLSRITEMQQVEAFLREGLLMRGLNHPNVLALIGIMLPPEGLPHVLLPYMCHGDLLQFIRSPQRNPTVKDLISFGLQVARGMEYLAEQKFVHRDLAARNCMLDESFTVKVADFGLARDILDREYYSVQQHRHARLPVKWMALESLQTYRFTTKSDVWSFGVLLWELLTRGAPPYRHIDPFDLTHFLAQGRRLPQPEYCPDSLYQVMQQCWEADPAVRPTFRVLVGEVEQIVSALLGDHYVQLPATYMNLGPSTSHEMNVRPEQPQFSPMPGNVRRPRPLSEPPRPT
pIC50: −log10 of the molar value.
reported_endpoint: pIC50

Request: For the compound CC1=C(CC(=O)/C=C/c2cccc(CO)c2)C(=O)C=C2C1=CC=C1[C@@]2(C)CC[C@@]2(C)C3C[C@](C)(C(=O)CCc4nc(C(O)C(O)O)c(C)nc4C)CC[C@]3(C)CC[C@]12C (stereo partly shown) , what pIC50 is on record?
Response: < 4.52

====

# system_under_test: JAK3 (Homo sapiens)
# Sequence (P52333 whole entry): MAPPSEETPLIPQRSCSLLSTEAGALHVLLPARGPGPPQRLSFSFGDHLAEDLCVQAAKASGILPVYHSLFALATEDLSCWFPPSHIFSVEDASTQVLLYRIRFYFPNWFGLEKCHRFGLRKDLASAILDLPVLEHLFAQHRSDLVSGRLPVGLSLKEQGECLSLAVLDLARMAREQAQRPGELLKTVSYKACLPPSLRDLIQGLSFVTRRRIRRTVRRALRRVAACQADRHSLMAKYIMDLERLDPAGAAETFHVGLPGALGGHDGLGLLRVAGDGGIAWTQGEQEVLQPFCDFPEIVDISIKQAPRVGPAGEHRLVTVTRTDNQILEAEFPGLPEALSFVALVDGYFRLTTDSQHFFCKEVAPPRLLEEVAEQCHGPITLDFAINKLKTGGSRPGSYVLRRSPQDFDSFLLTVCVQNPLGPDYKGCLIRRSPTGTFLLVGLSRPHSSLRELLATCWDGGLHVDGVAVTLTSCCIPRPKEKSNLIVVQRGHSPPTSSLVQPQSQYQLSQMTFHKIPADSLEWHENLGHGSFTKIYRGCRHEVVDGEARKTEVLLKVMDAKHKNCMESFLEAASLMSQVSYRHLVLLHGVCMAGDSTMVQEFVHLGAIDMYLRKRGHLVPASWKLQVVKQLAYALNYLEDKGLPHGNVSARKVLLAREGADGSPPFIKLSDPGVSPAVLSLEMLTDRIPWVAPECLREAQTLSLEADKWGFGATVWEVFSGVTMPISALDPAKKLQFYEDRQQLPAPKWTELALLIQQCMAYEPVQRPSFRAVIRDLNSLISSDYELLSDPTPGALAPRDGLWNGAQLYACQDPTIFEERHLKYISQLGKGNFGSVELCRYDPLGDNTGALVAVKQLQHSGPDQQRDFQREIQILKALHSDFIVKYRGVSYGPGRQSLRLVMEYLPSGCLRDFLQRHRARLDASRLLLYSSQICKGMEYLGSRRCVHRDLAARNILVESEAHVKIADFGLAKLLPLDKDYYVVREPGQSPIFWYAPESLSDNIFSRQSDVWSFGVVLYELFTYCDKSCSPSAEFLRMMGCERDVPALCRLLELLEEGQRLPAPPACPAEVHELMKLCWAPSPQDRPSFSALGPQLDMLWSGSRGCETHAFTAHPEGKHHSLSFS
pIC50: −log10 of the molar value.
reported_endpoint: pIC50

Request: # pIC50 lookup, item CC1=C(CC(=O)/C=C/c2cccc(CO)c2)C(=O)C=C2C1=CC=C1[C@@]2(C)CC[C@@]2(C)C3C[C@](C)(C(=O)CCc4nc(C(O)C(O)O)c(C)nc4C)CC[C@]3(C)CC[C@]12C (stereo partly shown)
Response: < 4.52

====

# system_under_test: ROS1 (Homo sapiens)
# Sequence (P08922 28-2347): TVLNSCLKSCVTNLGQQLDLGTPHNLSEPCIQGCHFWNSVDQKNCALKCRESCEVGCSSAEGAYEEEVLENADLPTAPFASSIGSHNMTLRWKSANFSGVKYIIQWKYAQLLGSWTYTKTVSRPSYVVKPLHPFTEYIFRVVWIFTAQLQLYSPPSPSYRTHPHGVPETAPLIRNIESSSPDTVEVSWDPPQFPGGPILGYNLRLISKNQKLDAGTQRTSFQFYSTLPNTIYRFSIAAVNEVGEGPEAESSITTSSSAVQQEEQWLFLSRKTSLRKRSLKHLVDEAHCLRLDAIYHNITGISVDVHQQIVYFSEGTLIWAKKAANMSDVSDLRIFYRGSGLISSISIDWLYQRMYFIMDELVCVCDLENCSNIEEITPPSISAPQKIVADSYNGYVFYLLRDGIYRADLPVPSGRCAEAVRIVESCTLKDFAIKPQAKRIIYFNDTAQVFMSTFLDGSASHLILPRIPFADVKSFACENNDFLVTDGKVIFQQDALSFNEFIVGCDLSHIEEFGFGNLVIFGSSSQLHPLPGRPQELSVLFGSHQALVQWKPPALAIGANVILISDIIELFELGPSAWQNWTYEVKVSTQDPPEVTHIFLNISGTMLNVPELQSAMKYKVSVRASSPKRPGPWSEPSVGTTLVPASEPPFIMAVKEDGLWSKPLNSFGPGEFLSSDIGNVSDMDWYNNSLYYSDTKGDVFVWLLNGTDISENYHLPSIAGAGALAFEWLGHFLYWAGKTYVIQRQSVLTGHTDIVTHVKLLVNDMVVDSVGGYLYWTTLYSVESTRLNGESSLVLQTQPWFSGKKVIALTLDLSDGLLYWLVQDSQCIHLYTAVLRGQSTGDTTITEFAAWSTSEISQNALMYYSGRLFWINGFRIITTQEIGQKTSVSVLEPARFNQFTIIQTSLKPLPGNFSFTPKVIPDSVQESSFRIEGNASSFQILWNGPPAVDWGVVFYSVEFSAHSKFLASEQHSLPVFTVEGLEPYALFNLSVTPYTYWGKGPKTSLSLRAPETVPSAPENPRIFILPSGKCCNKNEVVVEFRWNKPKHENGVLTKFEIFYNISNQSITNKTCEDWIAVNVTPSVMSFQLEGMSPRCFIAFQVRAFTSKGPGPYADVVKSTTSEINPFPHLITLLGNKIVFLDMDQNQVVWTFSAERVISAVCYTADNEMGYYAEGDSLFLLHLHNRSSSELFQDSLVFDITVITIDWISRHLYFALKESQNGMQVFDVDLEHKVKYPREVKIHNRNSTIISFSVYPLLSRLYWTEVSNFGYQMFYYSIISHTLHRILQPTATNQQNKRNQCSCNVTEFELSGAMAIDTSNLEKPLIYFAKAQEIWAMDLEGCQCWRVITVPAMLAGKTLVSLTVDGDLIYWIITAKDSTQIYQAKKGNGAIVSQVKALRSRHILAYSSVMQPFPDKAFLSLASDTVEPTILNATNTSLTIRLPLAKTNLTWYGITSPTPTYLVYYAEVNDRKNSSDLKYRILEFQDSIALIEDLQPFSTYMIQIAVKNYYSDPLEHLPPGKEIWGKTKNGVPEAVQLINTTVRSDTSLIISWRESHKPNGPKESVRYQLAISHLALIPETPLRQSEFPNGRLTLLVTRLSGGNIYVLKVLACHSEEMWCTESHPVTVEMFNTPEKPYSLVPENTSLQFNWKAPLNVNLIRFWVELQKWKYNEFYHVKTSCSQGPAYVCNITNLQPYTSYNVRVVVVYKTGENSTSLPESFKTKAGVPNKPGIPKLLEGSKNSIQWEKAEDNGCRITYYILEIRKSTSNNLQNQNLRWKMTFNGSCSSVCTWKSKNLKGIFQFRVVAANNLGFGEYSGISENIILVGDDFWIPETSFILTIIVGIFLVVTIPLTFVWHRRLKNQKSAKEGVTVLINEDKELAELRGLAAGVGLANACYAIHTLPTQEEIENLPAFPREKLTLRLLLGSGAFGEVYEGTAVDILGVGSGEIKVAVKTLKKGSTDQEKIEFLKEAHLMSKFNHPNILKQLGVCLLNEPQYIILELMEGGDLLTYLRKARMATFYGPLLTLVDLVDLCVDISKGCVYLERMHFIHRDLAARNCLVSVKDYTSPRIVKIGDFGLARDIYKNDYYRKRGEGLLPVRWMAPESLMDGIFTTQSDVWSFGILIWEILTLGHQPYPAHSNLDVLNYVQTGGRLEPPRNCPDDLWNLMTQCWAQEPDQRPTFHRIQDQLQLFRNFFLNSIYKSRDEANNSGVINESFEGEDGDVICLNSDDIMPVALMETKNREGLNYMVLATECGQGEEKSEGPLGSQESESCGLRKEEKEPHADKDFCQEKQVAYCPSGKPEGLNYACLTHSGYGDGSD
reported_endpoint: IC50

Request: Give recorded IC50 with ROS1 (Homo sapiens) for the following compound: CC1=C(CC(=O)/C=C/c2cccc(CO)c2)C(=O)C=C2C1=CC=C1[C@@]2(C)CC[C@@]2(C)C3C[C@](C)(C(=O)CCc4nc(C(O)C(O)O)c(C)nc4C)CC[C@]3(C)CC[C@]12C (stereo partly shown)
Response: > 30 µM

====

# system_under_test: NTRK2 (Homo sapiens)
pIC50: −log10 of the molar value.
reported_endpoint: pIC50

Request: Which pIC50 is reported for this compound? CC1=C(CC(=O)/C=C/c2cccc(CO)c2)C(=O)C=C2C1=CC=C1[C@@]2(C)CC[C@@]2(C)C3C[C@](C)(C(=O)CCc4nc(C(O)C(O)O)c(C)nc4C)CC[C@]3(C)CC[C@]12C (stereo partly shown)
Response: < 4.52

====

# system_under_test: UniProt:P51813
# Sequence (P51813 1-675): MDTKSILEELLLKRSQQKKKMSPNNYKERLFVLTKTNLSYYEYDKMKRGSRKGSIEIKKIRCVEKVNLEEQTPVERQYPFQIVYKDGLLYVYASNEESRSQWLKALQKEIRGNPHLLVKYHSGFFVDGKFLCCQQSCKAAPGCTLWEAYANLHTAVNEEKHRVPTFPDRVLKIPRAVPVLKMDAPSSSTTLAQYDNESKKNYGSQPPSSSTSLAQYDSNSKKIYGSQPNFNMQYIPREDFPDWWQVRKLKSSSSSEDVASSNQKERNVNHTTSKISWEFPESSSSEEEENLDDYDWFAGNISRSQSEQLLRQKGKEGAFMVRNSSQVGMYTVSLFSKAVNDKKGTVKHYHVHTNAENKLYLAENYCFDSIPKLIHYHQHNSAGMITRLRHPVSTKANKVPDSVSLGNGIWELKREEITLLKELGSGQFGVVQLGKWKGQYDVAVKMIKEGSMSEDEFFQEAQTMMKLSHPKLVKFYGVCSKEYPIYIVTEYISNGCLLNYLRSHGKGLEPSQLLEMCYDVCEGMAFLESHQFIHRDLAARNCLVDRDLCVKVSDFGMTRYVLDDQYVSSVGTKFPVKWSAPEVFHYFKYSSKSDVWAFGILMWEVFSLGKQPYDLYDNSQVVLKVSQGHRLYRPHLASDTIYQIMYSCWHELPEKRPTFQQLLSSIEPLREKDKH
reported_endpoint: IC50

Request: Form field: reported IC50 of CC1=C(CC(=O)/C=C/c2cccc(CO)c2)C(=O)C=C2C1=CC=C1[C@@]2(C)CC[C@@]2(C)C3C[C@](C)(C(=O)CCc4nc(C(O)C(O)O)c(C)nc4C)CC[C@]3(C)CC[C@]12C (stereo partly shown)
Response: > 30 µM

====

# system_under_test: FES (Homo sapiens)
pIC50: −log10 of the molar value.
reported_endpoint: pIC50

Request: Recorded pIC50 for CC1=C(CC(=O)/C=C/c2cccc(CO)c2)C(=O)C=C2C1=CC=C1[C@@]2(C)CC[C@@]2(C)C3C[C@](C)(C(=O)CCc4nc(C(O)C(O)O)c(C)nc4C)CC[C@]3(C)CC[C@]12C (stereo partly shown) , please?
Response: < 4.52

====

# system_under_test: UniProt P29323
# Sequence (P29323 19-1055): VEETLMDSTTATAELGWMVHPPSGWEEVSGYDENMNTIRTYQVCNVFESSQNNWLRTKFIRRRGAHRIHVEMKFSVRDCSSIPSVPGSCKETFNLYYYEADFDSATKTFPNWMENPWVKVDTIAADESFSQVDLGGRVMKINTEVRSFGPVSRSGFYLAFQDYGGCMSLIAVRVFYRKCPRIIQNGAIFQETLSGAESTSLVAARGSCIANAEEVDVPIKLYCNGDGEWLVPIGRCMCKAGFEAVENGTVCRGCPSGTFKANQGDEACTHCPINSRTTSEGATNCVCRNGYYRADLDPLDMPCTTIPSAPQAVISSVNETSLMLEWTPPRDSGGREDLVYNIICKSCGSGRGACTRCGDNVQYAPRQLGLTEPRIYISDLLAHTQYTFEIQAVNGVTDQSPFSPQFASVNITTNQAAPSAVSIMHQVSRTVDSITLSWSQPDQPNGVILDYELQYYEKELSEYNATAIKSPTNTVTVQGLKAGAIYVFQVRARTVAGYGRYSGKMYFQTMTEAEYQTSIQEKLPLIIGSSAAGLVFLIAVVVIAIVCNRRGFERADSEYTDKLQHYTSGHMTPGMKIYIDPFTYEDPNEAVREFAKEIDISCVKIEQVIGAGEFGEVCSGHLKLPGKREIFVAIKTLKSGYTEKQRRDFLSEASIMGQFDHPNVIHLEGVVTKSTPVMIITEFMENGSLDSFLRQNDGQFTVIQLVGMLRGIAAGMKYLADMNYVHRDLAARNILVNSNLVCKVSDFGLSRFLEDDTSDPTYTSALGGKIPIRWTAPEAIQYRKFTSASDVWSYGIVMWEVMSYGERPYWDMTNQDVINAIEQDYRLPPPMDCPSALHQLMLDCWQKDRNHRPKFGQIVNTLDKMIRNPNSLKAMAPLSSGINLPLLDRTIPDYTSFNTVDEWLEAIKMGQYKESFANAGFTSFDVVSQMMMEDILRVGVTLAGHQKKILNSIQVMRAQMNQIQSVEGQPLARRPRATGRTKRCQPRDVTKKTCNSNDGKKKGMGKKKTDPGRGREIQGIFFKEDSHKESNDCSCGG
reported_endpoint: IC50

Request: Returns the measured IC50 for the input compound. Input: CC1=C(CC(=O)/C=C/c2cccc(CO)c2)C(=O)C=C2C1=CC=C1[C@@]2(C)CC[C@@]2(C)C3C[C@](C)(C(=O)CCc4nc(C(O)C(O)O)c(C)nc4C)CC[C@]3(C)CC[C@]12C (stereo partly shown)
Response: > 30 µM
